system: bovine cardiac myofibrils; assay: Myofibril assay: PK/LDH-coupled steady-state ATPase activity of skinned bovine cardiac myofibrils; assay type: biochemical; conditions: Ca2+ activating to 75% of maximal rate
READOUT TYPE: CDMF75 IC15 (µM)
Provide only the numeric value, understood in µM.

Q) Specify reported CDMF75 IC15 for the compound shown: COc1ccc(N2CC3(C2)C(=O)N(C(C)C)CC(=O)N3Cc2ccc(Cl)cc2)nn1
A) 5.7

Q) Report CDMF75 IC15, nothing else, for this compound: CNC(=O)N[C@H]1C[C@]2(C1)C(=O)N(c1ccc(C#N)cc1F)CC(=O)N2Cc1ccc(C(F)(F)F)cc1 [Compound 463B]
A) 0.4

Q) Retrieve CDMF75 IC15 measured for CC(=O)N1CC2(C1)C(=O)N(c1ncc(C(F)(F)F)cc1F)CC(=O)N2[C@@H](C)c1ccc(Cl)cc1 and print it.
A) 17.8

Q) Dear colleague, please send me the reported CDMF75 IC15 for CNc1cccc(N2CC3(C2)C(=O)N(c2ccc(C#N)cc2F)CC(=O)N3Cc2ccc(C(F)(F)F)cc2)c1 when you can.
A) 0.2

Q) Please give measured CDMF75 IC15 of the following entry: CC1(CCC(N)=O)C(=O)N(c2ncc(Cl)cc2F)CC(=O)N1Cc1ccc(C(F)(F)F)cc1 (stereo not shown)
A) 9.9

Q) Please report CDMF75 IC15 for the following compound: Cc1cc(Cl)cnc1N1CC(=O)N(Cc2ccc(C(F)(F)F)cc2)C(C2(C)COC2)C1=O (stereo not shown)
A) 9.0

Q) Using known records, supply CDMF75 IC15 for O=C1CN(c2ccc(Cl)cc2F)C(=O)C2(COC2)N1Cc1ccc(C(F)(F)F)cc1
A) 1.0

Q) Give the measured CDMF75 IC15 for CC(C)N1CC(=O)N(Cc2ccc(Cl)cc2)C2(CCN(c3cccnn3)C2)C1=O (stereo not shown)
A) 3.8

Q) Give reported CDMF75 IC15 value for CNC(=O)[C@H]1C[C@]2(C1)C(=O)N(C(C)C)CC(=O)N2Cc1ccc(C(F)(F)F)cc1 [Compound 498B]
A) 29.8

Q) Give recorded CDMF75 IC15. Cc1ncccc1N1CC2(C1)C(=O)N(C(C)C)CC(=O)N2Cc1ccc(Cl)cc1
A) 7.1

Q) Provide one value: measured CDMF75 IC15 of CC(C)N1CC(=O)N(Cc2ccc(Cl)cc2)C2(CCN(C(N)=O)C2)C1=O (stereo not shown) [Compound 120]
A) 18.3

Q) Complete the entry with CDMF75 IC15 for O=C1C(C2COC2)N(Cc2ccc(C(F)(F)F)cc2)C(=O)CN1c1ncc(OC(F)F)cc1F (stereo not shown)
A) 24.6

Q) Given the compound CNC(=O)N1CCC2(C1)C(=O)N(C(C)C)CC(=O)N2Cc1ccc(Cl)cc1 (stereo not shown) , write its reported CDMF75 IC15.
A) 9.9

Q) Tell us which CDMF75 IC15 value is on record for CC(C)N1CC(=O)N(Cc2ccc(Cl)cc2)C2(CN(c3cccc(Cl)c3)C2)C1=O
A) 1.9

Q) Supply recorded CDMF75 IC15 for CC(C)N1CC(=O)N(Cc2ccc(Cl)cc2)C2(CN(c3cnccn3)C2)C1=O here.
A) 6.6

Values from patent US11414424B2
